target under test: Peptidylglycine alpha-amidating monooxygenase (Rattus norvegicus) (UniProt P14925)
Sequence (whole entry): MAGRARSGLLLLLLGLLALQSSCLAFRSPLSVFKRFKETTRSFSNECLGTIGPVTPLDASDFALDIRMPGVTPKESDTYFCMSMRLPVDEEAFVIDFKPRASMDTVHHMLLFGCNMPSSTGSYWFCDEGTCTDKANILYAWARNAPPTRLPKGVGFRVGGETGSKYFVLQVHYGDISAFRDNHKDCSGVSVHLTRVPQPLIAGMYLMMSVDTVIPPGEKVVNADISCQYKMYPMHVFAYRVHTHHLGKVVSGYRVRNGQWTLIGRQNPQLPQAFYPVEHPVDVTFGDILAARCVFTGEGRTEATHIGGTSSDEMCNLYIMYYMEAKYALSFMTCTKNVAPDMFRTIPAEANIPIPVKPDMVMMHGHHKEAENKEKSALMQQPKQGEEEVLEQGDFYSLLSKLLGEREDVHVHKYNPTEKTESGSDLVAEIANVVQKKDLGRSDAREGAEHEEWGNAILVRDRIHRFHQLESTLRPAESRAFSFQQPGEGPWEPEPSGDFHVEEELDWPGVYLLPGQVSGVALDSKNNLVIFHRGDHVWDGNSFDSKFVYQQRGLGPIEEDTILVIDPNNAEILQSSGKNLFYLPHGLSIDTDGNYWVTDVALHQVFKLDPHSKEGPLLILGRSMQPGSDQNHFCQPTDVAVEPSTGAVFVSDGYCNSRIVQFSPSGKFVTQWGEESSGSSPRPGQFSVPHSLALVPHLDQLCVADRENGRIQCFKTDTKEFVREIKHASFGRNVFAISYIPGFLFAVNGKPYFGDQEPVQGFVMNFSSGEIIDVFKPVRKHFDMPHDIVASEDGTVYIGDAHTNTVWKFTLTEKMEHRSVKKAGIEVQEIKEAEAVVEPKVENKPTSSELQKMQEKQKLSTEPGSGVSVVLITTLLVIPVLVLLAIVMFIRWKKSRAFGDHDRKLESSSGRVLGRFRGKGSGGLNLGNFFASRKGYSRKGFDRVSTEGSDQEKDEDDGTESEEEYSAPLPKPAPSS
assay info: Inhibition of PAM on Substance P biosynthesis in the dorsal root ganglion (DRG) cell culture assay
Assay type: functional, tissue-based
Design: concentration or dose not given beside the values
condition context: concentration not given here
Non-standard residues stand in square brackets, D forms with d. Residues, ends and D or L forms follow the SMILES beside them. *: point of attachment. hCys = N[C@@H](CCS)C(=O)O; Cbz = O=C(OCc1ccccc1)*
Decision: inhibition compared against 30%; not below it gives condition met, below it gives condition not met.

{"molecule": "O=C(N[C@@H](Cc1ccccc1)C(=O)NC(CCS)C(=O)O)c1ccc2ccccc2c1 (stereo not given in full)", "target under test": "Peptidylglycine alpha-amidating monooxygenase (Rattus norvegicus) (UniProt P14925)", "cat": "condition met"}
{"molecule": "O=C(CCc1ccccc1)N[C@@H](Cc1ccccc1)C(=O)N[C@@H](CCS)C(=O)O", "target under test": "Peptidylglycine alpha-amidating monooxygenase (Rattus norvegicus) (UniProt P14925)", "cat": "condition not met"}
{"molecule": "O=C(CCc1ccc(Cl)c(Cl)c1)N[C@@H](Cc1ccccc1)C(=O)NC(CCS)C(=O)O (stereo not given in full)", "target under test": "Peptidylglycine alpha-amidating monooxygenase (Rattus norvegicus) (UniProt P14925)", "cat": "condition met"}
{"molecule": "CC(C)(C)OC(=O)N[C@H](Cc1ccccc1)C(=O)N[C@@H](Cc1ccccc1)C(=O)N[C@@H](CCS)C(=O)O", "target under test": "Peptidylglycine alpha-amidating monooxygenase (Rattus norvegicus) (UniProt P14925)", "cat": "condition met"}
{"molecule": "O=C(CCc1ccccc1)N[C@@H](Cc1ccccc1)C(=O)NC(CCS)C(=O)O (stereo not given in full)", "target under test": "Peptidylglycine alpha-amidating monooxygenase (Rattus norvegicus) (UniProt P14925)", "cat": "condition not met"}
{"molecule": "O=C(CCc1ccccc1)N[C@@H](Cc1ccccc1)C(=O)NC1CCSC1=O (stereo not given in full)", "target under test": "Peptidylglycine alpha-amidating monooxygenase (Rattus norvegicus) (UniProt P14925)", "cat": "condition met"}
{"molecule": "CCC(C)CC(=O)N[C@@H](Cc1ccccc1)C(=O)N[C@@H](CCS)C(=O)O (stereo not given in full)", "target under test": "Peptidylglycine alpha-amidating monooxygenase (Rattus norvegicus) (UniProt P14925)", "cat": "condition not met"}
{"molecule": "O=C(COc1ccccc1)N[C@@H](Cc1ccccc1)C(=O)NC(CCS)C(=O)O (stereo not given in full)", "target under test": "Peptidylglycine alpha-amidating monooxygenase (Rattus norvegicus) (UniProt P14925)", "cat": "condition not met"}
{"molecule": "O=C(N[C@@H](Cc1ccccc1)C(=O)NC(CCS)C(=O)O)c1cc2ccccc2[nH]1 (stereo not given in full)", "target under test": "Peptidylglycine alpha-amidating monooxygenase (Rattus norvegicus) (UniProt P14925)", "cat": "condition met"}
{"molecule": "O=C(N[C@@H](Cc1ccccc1)C(=O)N[C@@H](CCS)C(=O)O)OCc1ccccc1 (Cbz-Phe-[hCys]-OH)", "target under test": "Peptidylglycine alpha-amidating monooxygenase (Rattus norvegicus) (UniProt P14925)", "cat": "condition met"}
